Every entry's value here was drawn from patent US12421238B2.

# study-target: JAK2 (Homo sapiens, UniProt O60674)
# Sequence (O60674 whole entry): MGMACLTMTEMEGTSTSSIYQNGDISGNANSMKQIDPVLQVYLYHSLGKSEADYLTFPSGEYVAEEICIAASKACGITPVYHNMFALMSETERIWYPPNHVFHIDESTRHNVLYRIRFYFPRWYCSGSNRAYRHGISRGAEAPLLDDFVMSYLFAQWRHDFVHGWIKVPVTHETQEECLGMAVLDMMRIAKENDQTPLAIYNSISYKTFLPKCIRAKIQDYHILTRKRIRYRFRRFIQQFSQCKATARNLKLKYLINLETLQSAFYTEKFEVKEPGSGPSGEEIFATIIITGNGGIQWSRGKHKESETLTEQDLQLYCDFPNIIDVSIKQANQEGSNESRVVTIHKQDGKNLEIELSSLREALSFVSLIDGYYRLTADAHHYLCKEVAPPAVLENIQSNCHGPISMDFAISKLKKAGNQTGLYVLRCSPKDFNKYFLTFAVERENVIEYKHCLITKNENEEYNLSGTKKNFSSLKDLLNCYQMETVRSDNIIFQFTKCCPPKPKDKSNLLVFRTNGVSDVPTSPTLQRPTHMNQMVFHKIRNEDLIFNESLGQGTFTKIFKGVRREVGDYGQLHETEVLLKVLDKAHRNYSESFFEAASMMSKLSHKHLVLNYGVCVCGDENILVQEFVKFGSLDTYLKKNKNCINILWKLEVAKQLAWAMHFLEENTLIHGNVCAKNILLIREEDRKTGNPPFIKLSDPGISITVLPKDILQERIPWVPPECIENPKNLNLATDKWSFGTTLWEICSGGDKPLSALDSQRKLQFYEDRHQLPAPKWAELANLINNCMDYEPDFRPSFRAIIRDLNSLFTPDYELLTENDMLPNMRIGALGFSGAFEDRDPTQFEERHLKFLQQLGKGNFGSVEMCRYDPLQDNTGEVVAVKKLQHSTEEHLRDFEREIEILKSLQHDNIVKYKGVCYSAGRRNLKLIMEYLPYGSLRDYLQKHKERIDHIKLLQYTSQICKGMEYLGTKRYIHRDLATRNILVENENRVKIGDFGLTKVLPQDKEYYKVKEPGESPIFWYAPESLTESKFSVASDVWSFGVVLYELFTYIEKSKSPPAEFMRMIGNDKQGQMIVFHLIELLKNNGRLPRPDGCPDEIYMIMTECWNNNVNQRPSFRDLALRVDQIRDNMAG
measured-property: IC50

• CC(C)(C)NS(=O)(=O)c1cccc(N2CCc3cnc(Nc4ccc(C5CCNCC5)cc4)nc32)c1 = 1 nM
• CC(C)(C)NS(=O)(=O)c1cccc(N2CCc3cnc(Nc4ccc(N5CCNCC5)cc4)nc32)c1 = 2 nM
• CC(C)(C)NS(=O)(=O)c1cccc(N2CCc3cnc(Nc4ccc(OCCN5CCCC5)cc4)nc32)c1 = 2.5 nM
• CC(C)(C)NS(=O)(=O)c1cccc(N2CCc3cnc(Nc4ccc(N5CCCCC5)cc4)nc32)c1 = 0.7 nM

====

# study-target: JAK3 (Homo sapiens, UniProt P52333)
# Sequence (P52333 1-1124): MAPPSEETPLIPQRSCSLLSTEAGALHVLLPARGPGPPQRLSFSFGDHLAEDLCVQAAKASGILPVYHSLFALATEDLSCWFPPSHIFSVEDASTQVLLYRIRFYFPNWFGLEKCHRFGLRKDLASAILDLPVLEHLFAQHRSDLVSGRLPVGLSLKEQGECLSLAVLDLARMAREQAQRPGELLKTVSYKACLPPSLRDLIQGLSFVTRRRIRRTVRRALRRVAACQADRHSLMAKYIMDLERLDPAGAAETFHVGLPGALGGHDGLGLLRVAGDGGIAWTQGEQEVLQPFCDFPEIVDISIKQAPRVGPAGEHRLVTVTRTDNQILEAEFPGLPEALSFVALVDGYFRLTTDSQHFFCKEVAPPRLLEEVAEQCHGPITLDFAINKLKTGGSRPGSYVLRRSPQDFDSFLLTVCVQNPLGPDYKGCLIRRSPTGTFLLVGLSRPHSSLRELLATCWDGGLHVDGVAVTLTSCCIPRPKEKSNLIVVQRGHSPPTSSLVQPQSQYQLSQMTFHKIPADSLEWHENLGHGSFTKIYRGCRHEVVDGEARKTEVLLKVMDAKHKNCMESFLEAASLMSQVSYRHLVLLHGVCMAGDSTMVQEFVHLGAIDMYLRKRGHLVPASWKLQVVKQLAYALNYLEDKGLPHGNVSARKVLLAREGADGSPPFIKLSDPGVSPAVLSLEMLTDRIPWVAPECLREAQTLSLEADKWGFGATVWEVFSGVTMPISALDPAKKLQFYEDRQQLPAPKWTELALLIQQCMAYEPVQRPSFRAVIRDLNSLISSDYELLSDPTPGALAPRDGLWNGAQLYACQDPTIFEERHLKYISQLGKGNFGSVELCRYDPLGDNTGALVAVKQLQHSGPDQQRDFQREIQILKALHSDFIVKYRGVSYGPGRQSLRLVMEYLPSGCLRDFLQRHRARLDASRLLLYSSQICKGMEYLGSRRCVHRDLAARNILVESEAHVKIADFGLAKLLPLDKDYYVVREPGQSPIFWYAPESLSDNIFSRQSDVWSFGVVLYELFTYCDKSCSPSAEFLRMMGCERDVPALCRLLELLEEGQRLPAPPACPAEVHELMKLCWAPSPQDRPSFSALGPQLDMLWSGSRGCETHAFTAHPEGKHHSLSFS
# measurement-description: Kinase activity test on JAK3 (Caliper EZ Reader conversion rate)
pIC50: −log10 of the molar value.
Below, each of the molecules is paired with its reported pIC50 value.
measured-property: pIC50

- CC(C)(C)NS(=O)(=O)c1cccc(N2CCc3cnc(Nc4ccc(OCCN5CCS(=O)(=O)CC5)cc4)nc32)c1: 6.05
- CC(C)(C)NS(=O)(=O)c1cccc(N2CCc3cnc(Nc4ccc(OCCN5CCCC5)cc4)nc32)c1: 5.90
- CC(C)(C)NS(=O)(=O)c1cccc(N2CCc3cnc(Nc4ccc(OCCN5CCOCC5)cc4)nc32)c1: 6.06
- CC(C)(C)NS(=O)(=O)c1cccc(N2CCc3cnc(Nc4ccc(N5CCNCC5)cc4)nc32)c1: 5.86

====

Below, each of the molecules is paired with its reported Cmax value.
# measurement-description: Pharmacokinetic test in SD rats, intragastric administration
# Type: in vivo
# reported-conditions: rat, po, single intragastric administration, 25 mg/kg, plasma, read-out: Blood concentration Cmax
measured-property: Cmax (ng/mL)

- CN1CCN(c2ccc(Nc3ncc4c(n3)N(c3cccc(S(=O)(=O)NC(C)(C)C)c3)CC4)cc2)CC1: 1240
- CC(C)(C)NS(=O)(=O)c1cccc(N2CCc3cnc(Nc4ccc(OCCN5CCSCC5)cc4)nc32)c1: 1230
- CC(C)(C)NS(=O)(=O)c1cccc(N2CCc3cnc(Nc4ccc(OCCN5CCNCC5)cc4)nc32)c1: 1020
- CC(C)(C)NS(=O)(=O)c1cccc(N2CCc3cnc(Nc4ccc(OC5CCNCC5)cc4)nc32)c1: 1120

====

# measurement-description: Pharmacokinetic test in SD rats, intragastric administration
# Format: in vivo
# reported-conditions: rat, po, single intragastric administration, 25 mg/kg, plasma, read-out: Half life t1/2 (converted)
# Protocol: SD rats were used as the test animals. Standard curve and preparation and processing of quality control samples: Stock solution was diluted with 50% acetonitrile/water solution to obtain standard working solutions of 0.04, 0.10, 0.20, 0.40, 1.00, 2.00, 4.00 μg/mL, and quality control working solutions of 0.10, 1.00, 3.00 μg/mL. […]
Below, each of the compounds is paired with its reported half-life value.
measured-property: half-life (h)

* CC(C)(C)NS(=O)(=O)c1cccc(N2CCc3cnc(Nc4ccc(OCCN5CCSCC5)cc4)nc32)c1 | 6.9
* CC(C)(C)NS(=O)(=O)c1cccc(N2CCc3cnc(Nc4ccc(C5CCNCC5)cc4)nc32)c1 | 6.3
* CC(C)(C)NS(=O)(=O)c1cccc(N2CCc3cnc(Nc4ccc(OCCN5CCCC5)cc4)nc32)c1 | 5.8
* CN1CCN(CCOc2ccc(Nc3ncc4c(n3)N(c3cccc(S(=O)(=O)NC(C)(C)C)c3)CC4)cc2)CC1 | 6.2

====

# Tested on: TF-1
# measurement-description: TF-1 cell proliferation experiment (CellTiter Glo)
# Assay type: cell-based
# reported-conditions: Homo sapiens; TF-1 cells, 72 hours; read-out: TF-1 (μM), proliferation inhibition
Below, each of the compounds is paired with its reported IC50 value.
measured-property: IC50 (µM)

- CC(C)(C)NS(=O)(=O)c1cccc(N2CCc3cnc(Nc4ccc(CC5CCOCC5)cc4)nc32)c1 [Compound I-10]: 0.19
- CN1CCC(Cc2ccc(Nc3ncc4c(n3)N(c3cccc(S(=O)(=O)NC(C)(C)C)c3)CC4)cc2)CC1 [Compound I-7]: 0.19
- CC(C)(C)NS(=O)(=O)c1cccc(N2CCc3cnc(Nc4ccc(CN5CCSCC5)cc4)nc32)c1 [Compound I-13]: 0.27
- CC(C)(C)NS(=O)(=O)c1cccc(N2CCc3cnc(Nc4ccc(OCCN5CCCC5)cc4)nc32)c1 [Compound I-1]: 0.15
- CC(C)(C)NS(=O)(=O)c1cccc(N2CCc3cnc(Nc4ccc(OC5CCNCC5)cc4)nc32)c1 [Compound I-19]: 0.17

====

# study-target: UniProt P52333
pIC50: −log10 of the molar value.
measured-property: pIC50

- CC(C)(C)NS(=O)(=O)c1cccc(N2CCc3cnc(Nc4ccc(CN5CCSCC5)cc4)nc32)c1: 6.06
- CC(C)(C)NS(=O)(=O)c1cccc(N2CCc3cnc(Nc4ccc(CN5CCS(=O)(=O)CC5)cc4)nc32)c1: 5.88
- CC(C)(C)NS(=O)(=O)c1cccc(N2CCc3cnc(Nc4ccc(C5CCNCC5)cc4)nc32)c1: 5.84
- CC(C)(C)NS(=O)(=O)c1cccc(N2CCc3cnc(Nc4ccc(CN5CCOCC5)cc4)nc32)c1: 6.01
- CN1CCN(CCOc2ccc(Nc3ncc4c(n3)N(c3cccc(S(=O)(=O)NC(C)(C)C)c3)CC4)cc2)CC1: 5.99
- CC(C)(C)NS(=O)(=O)c1cccc(N2CCc3cnc(Nc4ccc(OC5CCNCC5)cc4)nc32)c1: 5.82
- CC(C)(C)NS(=O)(=O)c1cccc(N2CCc3cnc(Nc4ccc(OCCN5CCNCC5)cc4)nc32)c1: 6.01
- CN1CCC(Cc2ccc(Nc3ncc4c(n3)N(c3cccc(S(=O)(=O)NC(C)(C)C)c3)CC4)cc2)CC1: 6.05
- CN1CCN(c2ccc(Nc3ncc4c(n3)N(c3cccc(S(=O)(=O)NC(C)(C)C)c3)CC4)cc2)CC1: 6.22

====

# measurement-description: Pharmacokinetic test in SD rats, intragastric administration
# Assay type: in vivo
# reported-conditions: rat, po, single intragastric administration, 25 mg/kg, plasma, read-out: Half life t1/2 (converted)
# Description: SD rats were used as the test animals. Standard curve and preparation and processing of quality control samples: Stock solution was diluted with 50% acetonitrile/water solution to obtain standard working solutions of 0.04, 0.10, 0.20, 0.40, 1.00, 2.00, 4.00 μg/mL, and quality control working solutions of 0.10, 1.00, 3.00 μg/mL. […]
measured-property: half-life (h)

* CN1CCN(c2ccc(Nc3ncc4c(n3)N(c3cccc(S(=O)(=O)NC(C)(C)C)c3)CC4)cc2)CC1 | 6.8
* CC(C)(C)NS(=O)(=O)c1cccc(N2CCc3cnc(Nc4ccc(CN5CCSCC5)cc4)nc32)c1 | 5.5
* CC(C)(C)NS(=O)(=O)c1cccc(N2CCc3cnc(Nc4ccc(OCCN5CCNCC5)cc4)nc32)c1 | 6
* CC(C)(C)NS(=O)(=O)c1cccc(N2CCc3cnc(Nc4ccc(OCCN5CCOCC5)cc4)nc32)c1 | 5.9
* Cc1cnc(Nc2ccc(OCCN3CCCC3)cc2)nc1Nc1cccc(S(=O)(=O)NC(C)(C)C)c1 [Fedratinib, reference compound] | 4
* CC(C)(C)NS(=O)(=O)c1cccc(N2CCc3cnc(Nc4ccc(OCCN5CCCCC5)cc4)nc32)c1 | 6.1
* CC(C)(C)NS(=O)(=O)c1cccc(N2CCc3cnc(Nc4ccc(OC5CCNCC5)cc4)nc32)c1 | 6.2
